Where these numbers come from: the supplement of paper PMC7877785

assay: self-splicing fitness, log relative to wild type (ln ratio); higher = more splicing; Tetrahymena group I intron in knt gene, E. coli kanamycin selection, DiMSum; sequences stand for … in CUCUCU…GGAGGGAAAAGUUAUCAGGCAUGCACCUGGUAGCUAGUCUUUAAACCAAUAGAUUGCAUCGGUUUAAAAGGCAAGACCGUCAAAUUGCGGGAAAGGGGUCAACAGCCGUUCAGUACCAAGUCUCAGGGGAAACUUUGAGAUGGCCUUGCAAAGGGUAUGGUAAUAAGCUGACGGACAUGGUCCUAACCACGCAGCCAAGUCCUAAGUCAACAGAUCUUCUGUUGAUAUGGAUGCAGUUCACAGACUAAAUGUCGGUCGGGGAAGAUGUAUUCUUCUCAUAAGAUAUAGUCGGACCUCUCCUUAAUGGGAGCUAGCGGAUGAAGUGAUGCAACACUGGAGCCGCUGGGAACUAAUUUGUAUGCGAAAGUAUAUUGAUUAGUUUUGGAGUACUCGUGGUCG; settings: 30 °C;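 further: selection with 25 µg/mL kanamycin versus none on LB agar overnight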
Threshold rule: self-splicing fitness (ln) greater than or equal to -3 is 1; below that, 0.

[
  {
    "Sequence text": "UCUAAGCAAUAUUACGUGUG",
    "Qualitative label": 1
  },
  {
    "Sequence text": "AUGUAGCAAUAUUACGUAUC",
    "Qualitative label": 0
  },
  {
    "Sequence text": "CCGGAGCAAUAUUACGUUAC",
    "Qualitative label": 0
  },
  {
    "Sequence text": "CUAAAGCAAUAUUACGAGCC",
    "Qualitative label": 1
  },
  {
    "Sequence text": "GUUGAGCAAUAUUACGGGAU",
    "Qualitative label": 0
  },
  {
    "Sequence text": "GCGCAGCAAUAUUACGGGUG",
    "Qualitative label": 1
  },
  {
    "Sequence text": "GACCAGCAAUAUUACGAAUC",
    "Qualitative label": 1
  },
  {
    "Sequence text": "AUUUAGCAAUAUUACGUACU",
    "Qualitative label": 1
  }
]

---

Quick list: self-splicing fitness (ln) per entry.
assay: self-splicing fitness, log relative to wild type (ln ratio); higher = more splicing; Tetrahymena group I intron in knt gene, E. coli kanamycin selection, DiMSum; sequences stand for … in CUCUCU…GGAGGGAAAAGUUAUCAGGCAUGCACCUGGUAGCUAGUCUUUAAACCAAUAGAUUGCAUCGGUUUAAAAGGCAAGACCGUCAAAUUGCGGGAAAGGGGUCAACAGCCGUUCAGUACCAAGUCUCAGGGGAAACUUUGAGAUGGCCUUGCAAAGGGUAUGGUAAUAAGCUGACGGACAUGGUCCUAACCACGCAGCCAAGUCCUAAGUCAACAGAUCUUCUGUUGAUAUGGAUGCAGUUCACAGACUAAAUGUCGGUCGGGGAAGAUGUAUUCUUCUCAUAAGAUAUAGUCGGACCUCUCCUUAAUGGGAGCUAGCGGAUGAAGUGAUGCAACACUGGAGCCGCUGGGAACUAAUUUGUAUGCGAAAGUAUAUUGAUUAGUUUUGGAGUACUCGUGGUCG; conditions: 30 °C
Measured quantity: self-splicing fitness (ln)

[
  {
    "Sequence text": "UCGCAGCAAUAUUACGCGAG",
    "Assay value": -2.85
  },
  {
    "Sequence text": "CGAUAGCAAUAUUACGGAUG",
    "Assay value": -0.777
  },
  {
    "Sequence text": "AACGAGCAAUAUUACGGUGU",
    "Assay value": -3.36
  },
  {
    "Sequence text": "UCUUAGCAAUAUUACGUACA",
    "Assay value": -2.58
  },
  {
    "Sequence text": "CCAGAGCAAUAUUACGGAUA",
    "Assay value": -3.52
  },
  {
    "Sequence text": "UCUUAGCAAUAUUACGGAGU",
    "Assay value": -3.29
  },
  {
    "Sequence text": "GCCUAGCAAUAUUACGCCGU",
    "Assay value": -1.01
  },
  {
    "Sequence text": "AUACAGCAAUAUUACGUUUU",
    "Assay value": -2.19
  }
]

---

assay: self-splicing fitness, log relative to wild type (ln ratio); higher = more splicing; Tetrahymena group I intron in knt gene, E. coli kanamycin selection, DiMSum; sequences stand for … in CUCUCU…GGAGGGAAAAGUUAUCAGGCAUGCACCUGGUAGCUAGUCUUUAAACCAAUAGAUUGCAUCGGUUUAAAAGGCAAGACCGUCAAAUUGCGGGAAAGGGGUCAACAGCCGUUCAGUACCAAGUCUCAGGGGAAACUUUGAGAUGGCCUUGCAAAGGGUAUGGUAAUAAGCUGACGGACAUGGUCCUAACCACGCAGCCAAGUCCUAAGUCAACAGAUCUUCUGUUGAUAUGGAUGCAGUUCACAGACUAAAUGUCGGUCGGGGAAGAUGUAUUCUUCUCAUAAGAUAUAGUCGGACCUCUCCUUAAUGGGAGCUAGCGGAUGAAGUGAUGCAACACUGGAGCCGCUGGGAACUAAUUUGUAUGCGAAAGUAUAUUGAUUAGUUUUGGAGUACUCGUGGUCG; settings: 30 °C
Label scheme for self-splicing fitness (ln): lower than -3 is FALSE, -3 and above is TRUE.

[
  {
    "Sequence text": "CACCAGCAAUAUUACGUCAC",
    "Qualitative label": "TRUE"
  },
  {
    "Sequence text": "AAGUAGCAAUAUUACGAGAA",
    "Qualitative label": "TRUE"
  },
  {
    "Sequence text": "UUAAAGCAAUAUUACGAAUA",
    "Qualitative label": "TRUE"
  },
  {
    "Sequence text": "UUUAAGCAAUAUUACGGCUC",
    "Qualitative label": "TRUE"
  },
  {
    "Sequence text": "CCACAGCAAUAUUACGGGCU",
    "Qualitative label": "FALSE"
  },
  {
    "Sequence text": "GCAUAGCAAUAUUACGAAUU",
    "Qualitative label": "TRUE"
  },
  {
    "Sequence text": "AUCAAGCAAUAUUACGCAUC",
    "Qualitative label": "FALSE"
  },
  {
    "Sequence text": "AGCUAGCAAUAUUACGUGUA",
    "Qualitative label": "FALSE"
  },
  {
    "Sequence text": "GCUCAGCAAUAUUACGAACU",
    "Qualitative label": "TRUE"
  },
  {
    "Sequence text": "AACGAGCAAUAUUACGAUAA",
    "Qualitative label": "FALSE"
  },
  {
    "Sequence text": "GGGCAGCAAUAUUACGUGGA",
    "Qualitative label": "TRUE"
  },
  {
    "Sequence text": "CCAUAGCAAUAUUACGCUCG",
    "Qualitative label": "TRUE"
  },
  {
    "Sequence text": "UCGGAGCAAUAUUACGUGCG",
    "Qualitative label": "TRUE"
  },
  {
    "Sequence text": "AUAGAGCAAUAUUACGCUAA",
    "Qualitative label": "TRUE"
  }
]

---

assay: self-splicing fitness, log relative to wild type (ln ratio); higher = more splicing; Tetrahymena group I intron in knt gene, E. coli kanamycin selection, DiMSum; sequences stand for … in CUCUCU…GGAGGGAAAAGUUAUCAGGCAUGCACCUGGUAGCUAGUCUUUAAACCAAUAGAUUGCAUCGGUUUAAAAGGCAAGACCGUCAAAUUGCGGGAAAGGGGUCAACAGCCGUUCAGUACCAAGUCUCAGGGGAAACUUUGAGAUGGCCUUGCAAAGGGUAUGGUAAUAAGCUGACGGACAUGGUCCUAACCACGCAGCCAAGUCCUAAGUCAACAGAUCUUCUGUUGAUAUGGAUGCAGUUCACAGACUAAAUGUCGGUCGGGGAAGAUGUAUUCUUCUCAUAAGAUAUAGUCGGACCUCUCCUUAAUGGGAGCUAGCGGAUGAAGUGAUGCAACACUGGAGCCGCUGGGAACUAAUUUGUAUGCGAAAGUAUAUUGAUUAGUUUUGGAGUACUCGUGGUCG; conditions: 37 °C
Answer Condition not met if self-splicing fitness (ln) is under -1, and Condition met if it is -1 or more.

[
  {
    "Sequence text": "UGUAAGCAAUAUUACGGGAU",
    "Qualitative label": "Condition not met"
  },
  {
    "Sequence text": "UCAAAGCAAUAUUACGUUCG",
    "Qualitative label": "Condition met"
  },
  {
    "Sequence text": "CGCGAGCAAUAUUACGGAGU",
    "Qualitative label": "Condition not met"
  },
  {
    "Sequence text": "GUUGAGCAAUAUUACGUACU",
    "Qualitative label": "Condition not met"
  },
  {
    "Sequence text": "CGAAAGCAAUAUUACGAGAC",
    "Qualitative label": "Condition not met"
  },
  {
    "Sequence text": "CCGCAGCAAUAUUACGUUGA",
    "Qualitative label": "Condition not met"
  },
  {
    "Sequence text": "CCAAAGCAAUAUUACGGUCU",
    "Qualitative label": "Condition not met"
  },
  {
    "Sequence text": "UUACAGCAAUAUUACGCGGG",
    "Qualitative label": "Condition met"
  },
  {
    "Sequence text": "GCCAAGCAAUAUUACGUUCG",
    "Qualitative label": "Condition not met"
  },
  {
    "Sequence text": "GUAAAGCAAUAUUACGGUAC",
    "Qualitative label": "Condition not met"
  },
  {
    "Sequence text": "AACUAGCAAUAUUACGGGCA",
    "Qualitative label": "Condition met"
  },
  {
    "Sequence text": "UACGAGCAAUAUUACGAUGC",
    "Qualitative label": "Condition not met"
  },
  {
    "Sequence text": "AUCCAGCAAUAUUACGACAG",
    "Qualitative label": "Condition not met"
  },
  {
    "Sequence text": "CGGAAGCAAUAUUACGAGGA",
    "Qualitative label": "Condition not met"
  }
]
